# Test system: MALME-3M melanoma
# test.method.notes: NCI-60 one-dose screen, 48 h (100 = growth as untreated, 0 = no growth, -100 = all killed)
# condition.context: 10 µM unless noted
About 83,000 compounds went through this panel and 20% of them were active in at least one assay; those are over-represented in the sample as a whole.
assay.endpoint: growth (%)
Quick reminder: number only, in %, skip the unit.

The reported MALME-3M melanoma growth of `ClCc1cccc(CSc2ncnc3c2ncn3Cc2cccc(CCl)c2)c1` is 41.7

Given the compound `C#CC[C@@H]1C[C@]2(C)[C@H]3CC=C4[C@H]5CC(C)(C)CC[C@]5(C(=O)NCCCCN)CC[C@@]4(C)[C@]3(C)CC[C@H]2C(C)(C)[C@H]1OC(C)=O` and test system MALME-3M melanoma, the measured growth is 85

Short answer on MALME-3M melanoma for `Cc1c(C)c(C)c([N+](=O)[O-])c([N+](=O)[O-])c1C` , growth: 90.1

# growth measured on MALME-3M melanoma for item `NNC(=O)Cc1ccccc1` = 99.7

With MALME-3M melanoma as the test system, `COc1ccc(C(=O)c2c(N)nc3n2CCCC3)cc1OC` showed growth of 99.9

The compound `COc1ccc(/C=c2\c(=O)n(-c3ccccc3)c3nn4c(n23)=NNC42CCCCC2)cc1` on MALME-3M melanoma: growth was 97.8
